Experiment: qHTS assay for MDR1-selective chemotherapeutics: Primary screen using the drug-selected MDR subline cells KB-V1; further: nearly all actives have a fitted effect of over 60% in size
Settings: KB-V1 MDR cells viability, CellTiter-Glo, 72 h; series mostly up to 46.1 µM
The whole screen tested about 400,000 compounds, of which about 13,000 (3.2%) were called active. Another 18% or so got no clear call; they are omitted. The call rests on the fitted dose curve; in most records, active means well fitted cell-killing curve with a large enough effect; inconclusive means small, poorly fitted or top-dose-only effect, or effect the other way; inactive means flat fitted curve, though single readings scatter. What follows is part of a selection rich in actives, with near analogues and random picks from the rest.
Classes used: label 1 = active, label 0 = inactive

>>> class_name("COc1ccc(/C=C/C(=O)Nc2ccc3c(c2)OCCO3)cc1OC")
"label 1"
>>> class_name("O=C(NCCC1CCCCN1S(=O)(=O)c1cccs1)C(=O)Nc1ccc(F)cc1F (configuration not stated)")
"label 1"
>>> class_name("COCCNC(=O)c1cc2c(Br)ccc(Br)c2nc1N")
"label 0"
>>> class_name("CC[C@@H]1CC2=C(C(=O)OC(C)(C)O2)[C@@H](CC)O1")
"label 0"
>>> class_name("O=C(c1cc(-c2ccc(Cl)cc2)on1)N1CCN(c2ccccc2)CC1")
"label 0"
>>> class_name("COCc1cccc(-c2csc(C(O)c3ccc(F)cc3)n2)c1 (configuration not stated)")
"label 0"
>>> class_name("COc1ccc(-c2cc(C(=O)N3CCN(c4ccc(F)cc4)CC3)no2)cc1")
"label 1"
>>> class_name("O=C(/C=C\\c1ccc2c(c1)OCO2)NC1(C(=O)Nc2ccc3c(c2)OCCO3)CCCCC1")
"label 0"
>>> class_name("CC(C)NC(=O)C1(C)CCCCCN1C(=O)c1ccc(-c2ccccc2)cc1 (configuration not stated)")
"label 0"
>>> class_name("CN(C)/C=C/c1c(C#N)c(=O)ncn1Cc1ccccc1")
"label 0"
>>> class_name("COc1cccc(/C=C/C(=O)Nc2ccc3c(c2)OCCO3)c1")
"label 0"
>>> class_name("CN(C)c1ccnc2sc3c(=O)n(Cc4ccccc4)cnc3c12")
"label 1"
>>> class_name("COc1ccc(CCNC(=O)C(=O)NCC2CCCN2S(=O)(=O)c2cccs2)cc1OC (configuration not stated)")
"label 0"
>>> class_name("CC1(C(=O)Nc2cccnc2)Cc2c(-c3ccccc3)ccnc2O1 (configuration not stated)")
"label 0"
>>> class_name("CC(C)(O)C#Cc1ccc(CNC[C@H]2O[C@@H](n3cnc4c(=O)[nH]c(N)nc43)[C@H](O)[C@@H]2O)s1")
"label 0"
>>> class_name("COc1ccccc1CCNC(=O)C(=O)NCCC1CCCCN1S(=O)(=O)c1cccs1 (configuration not stated)")
"label 0"
>>> class_name("O=C(COc1ccccc1C(=O)Nc1ccccc1)Nc1cccc(F)c1")
"label 0"
>>> class_name("Cc1ccc(-c2nc3ccc(Cl)cn3c2Cc2ccccc2)cc1")
"label 0"
>>> class_name("CCc1nc2c(OCCOc3ccccc3)cccn2c1N(C=O)Cc1ccc(OC)cc1")
"label 0"
>>> class_name("Cc1nc2c(-c3ccccc3)c(C)nn2c(C)c1CCC(=O)NCCc1ccccc1")
"label 0"
>>> class_name("O=C(c1cc(-c2ccc(F)cc2)on1)N1CCN(c2ccc(F)cc2)CC1")
"label 0"
>>> class_name("Cc1ccc(S(=O)(=O)N[C@H]2CCC[C@@H]2O)cc1")
"label 0"

Hey, just so you know, these numbers are from PubChem BioAssay AID1347076.
